All values here come from patent US20110172153A1.

- MEASUREMENT TARGET: T1, human parathyroid hormone receptor (PTHR) (human, UniProt Q03431 27-593)
- T1 construct: Assayed in membranes of HKRK-B7 cells or of transiently transfected COS-7 cells, or on intact HKRK-B7/HKRK-B64/COS-7 cells; RG = co-transfected with negative-dominant Galpha-s; R0 = receptor alone plus GTPgammaS; also called hPTHR; human PTH receptor
- T1 sequence: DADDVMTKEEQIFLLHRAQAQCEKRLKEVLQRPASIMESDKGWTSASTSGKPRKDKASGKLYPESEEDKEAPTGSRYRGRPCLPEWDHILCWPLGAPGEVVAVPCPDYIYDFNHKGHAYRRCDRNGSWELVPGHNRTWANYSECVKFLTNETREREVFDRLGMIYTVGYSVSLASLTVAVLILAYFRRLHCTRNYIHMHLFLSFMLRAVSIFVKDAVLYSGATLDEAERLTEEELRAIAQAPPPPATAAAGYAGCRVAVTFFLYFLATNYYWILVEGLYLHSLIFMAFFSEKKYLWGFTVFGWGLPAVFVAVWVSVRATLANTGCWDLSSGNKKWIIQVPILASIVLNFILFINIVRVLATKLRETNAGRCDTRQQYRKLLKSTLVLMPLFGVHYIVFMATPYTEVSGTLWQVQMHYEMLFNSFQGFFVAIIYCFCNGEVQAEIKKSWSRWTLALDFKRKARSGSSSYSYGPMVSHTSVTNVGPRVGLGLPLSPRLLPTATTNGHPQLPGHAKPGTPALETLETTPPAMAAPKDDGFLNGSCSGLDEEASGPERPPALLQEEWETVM
- TEST DESCRIPTION: ratio of R0 IC50 to RG IC50, hPTHR
READOUT NAME: R0:RG
Lab note: jot the number down without any unit.

Query string: Name the reported R0:RG value associated with the binder AVSEIQLXHNLGKHLASVERXQWLRKKLQDVHNY (Nle at 8 and 21; C-terminal amide, also called [Nle^8,21,Tyr^34]rat(r)PTH(1-34)NH2; control PTH(1-34) analog) [[Nle^8,21,Tyr^34]rPTH(1-34)NH2]
Result string: 5
